molecular target: MAGI3_2, Q5TCQ9; test: holdup assay; parameters: key: below the threshold = too weak to quantify, mostly under pKd 3.1 to 4; conditions: plain residues with an end cap or a label only (N-terminal biotin on a linker: ado-ado)
Sequence (Q5TCQ9 398-503): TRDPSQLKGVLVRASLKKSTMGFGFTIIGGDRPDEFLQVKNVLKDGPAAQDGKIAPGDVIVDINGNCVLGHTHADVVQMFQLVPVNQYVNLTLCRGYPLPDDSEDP
Quantity measured: pKd

Binder: QRYPGNQTTC [CCL24, O00175]
Quantity measured: pKd
Observed result: below the threshold
//
Binder: QKASRNESTF [POLR1D, P0DPB6]
Quantity measured: pKd
Observed result: below the threshold
//
Binder: PLATCDETSI [SEMA4F, O95754]
Quantity measured: pKd
Observed result: below the threshold
//
Binder: KAEEKPPSKV [SCN4B, Q8IWT1]
Quantity measured: pKd
Observed result: below the threshold
//
Binder: SRPHTNETSL [MCC, P23508]
Quantity measured: pKd
Observed result: 4.09
//
Binder: VYEVPVETKF [SLC26A3, P40879]
Quantity measured: pKd
Observed result: below the threshold
//
Binder: SAGADSETHC [SLCO1B1, Q9Y6L6]
Quantity measured: pKd
Observed result: below the threshold
//
Binder: NNMAFETTHF [SLC5A12, Q1EHB4]
Quantity measured: pKd
Observed result: below the threshold
//
Binder: PSDSVGKDVF [EGLN1, Q9GZT9]
Quantity measured: pKd
Observed result: below the threshold
//
Binder: HDDYFYHDEL [RCN2, Q14257]
Quantity measured: pKd
Observed result: below the threshold
//
Binder: DAAHHDESNC [FMNL3, Q8IVF7]
Quantity measured: pKd
Observed result: below the threshold
//
Binder: KSRPENGTVC [TMEM178B, H3BS89]
Quantity measured: pKd
Observed result: below the threshold
//
Binder: TKDKVQETQI [LRRC4, Q9HBW1]
Quantity measured: pKd
Observed result: 4.87
//
Binder: LVEEEEPMNL [HDAC7, Q8WUI4]
Quantity measured: pKd
Observed result: below the threshold
//
Binder: VCMGDHWFDV [PRKN, O60260]
Quantity measured: pKd
Observed result: below the threshold
//
Binder: NKSEPFLTWL [WWTR1, Q9GZV5]
Quantity measured: pKd
Observed result: 3.89
//
Binder: MQILSKPEFI [NPSR1, Q6W5P4]
Quantity measured: pKd
Observed result: below the threshold
//
Binder: EAVTVESTSL [SLC22A11, Q9NSA0]
Quantity measured: pKd
Observed result: below the threshold
//
Binder: KPDKQEEFYA [SDC3, O75056]
Quantity measured: pKd
Observed result: below the threshold
//
Binder: SSSVNVSSNL [CXCR1, P25024]
Quantity measured: pKd
Observed result: below the threshold

Source listed as paper PMC9482650.
